- system_under_test: T1, EsCas13d, nuclease-dead (Eubacterium siraeum, UniProt B0MS50, R295A;H300A;R849A;H854A)
- T1 sequence: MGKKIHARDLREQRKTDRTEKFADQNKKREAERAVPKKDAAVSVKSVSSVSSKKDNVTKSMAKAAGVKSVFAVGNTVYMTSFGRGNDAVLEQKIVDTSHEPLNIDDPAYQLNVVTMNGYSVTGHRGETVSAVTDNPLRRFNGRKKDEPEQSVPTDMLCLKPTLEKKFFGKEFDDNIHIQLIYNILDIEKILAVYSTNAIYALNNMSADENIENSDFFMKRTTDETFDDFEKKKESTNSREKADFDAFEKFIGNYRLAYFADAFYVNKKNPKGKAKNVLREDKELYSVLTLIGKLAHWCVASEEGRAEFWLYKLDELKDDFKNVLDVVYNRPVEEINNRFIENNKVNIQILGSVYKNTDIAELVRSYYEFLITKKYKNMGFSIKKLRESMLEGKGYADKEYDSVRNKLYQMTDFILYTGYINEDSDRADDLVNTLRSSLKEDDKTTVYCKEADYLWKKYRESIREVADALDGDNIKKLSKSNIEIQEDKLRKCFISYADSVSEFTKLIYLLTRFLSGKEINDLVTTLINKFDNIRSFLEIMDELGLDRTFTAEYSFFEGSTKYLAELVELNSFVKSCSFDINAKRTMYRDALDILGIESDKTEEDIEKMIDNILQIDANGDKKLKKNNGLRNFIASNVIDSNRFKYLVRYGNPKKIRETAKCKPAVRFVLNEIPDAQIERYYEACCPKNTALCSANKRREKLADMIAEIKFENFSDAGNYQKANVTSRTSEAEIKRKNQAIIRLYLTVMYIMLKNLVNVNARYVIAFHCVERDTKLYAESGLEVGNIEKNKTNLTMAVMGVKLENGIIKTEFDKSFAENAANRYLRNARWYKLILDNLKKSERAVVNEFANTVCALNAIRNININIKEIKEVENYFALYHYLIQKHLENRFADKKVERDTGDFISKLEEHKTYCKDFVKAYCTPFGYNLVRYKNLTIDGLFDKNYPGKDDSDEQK
- run_description: crRNA (strand 1, pre-loaded); Mg2+; 40 mM Tris-HCl pH 7.5, 150 mM NaCl, 6 mM MgCl2, 1 mM DTT, 0.1% Tween-20, 0.2 mg/ml BSA; 25 C; 10 min per concentration, then washed
- reported_conditions: tags: His6-TwinStrep-SUMO cleaved; N-terminal SNAP kept (SNAP-Surface 488); label: 3' end held by stalled T7 RNA polymerase
I'd be grateful if you could share measured pKd for these entries.
One number for each entry, as −log10 of the molar value.

For orientation, consider the following solved cases.
- binder: "target 1 MT 5'PFS AAC 3'PFS ACU (mixed) RNA 1: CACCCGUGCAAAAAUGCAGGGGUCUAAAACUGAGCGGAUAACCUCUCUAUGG RNA 2: GGGAAUGGAUCCACAUCUACGAAUUCAACCCAUAGAGAGGUUAUCCGCUCAACUAGAUCGGAAGAGCACACGU"
  pKd: 7.68
- binder: "target 2 MT 5'PFS CGG 3'PFS UAC (mixed) RNA 1: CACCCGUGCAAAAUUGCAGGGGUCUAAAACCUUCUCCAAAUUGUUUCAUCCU RNA 2: GGGAAUGGAUCCACAUCUACGAAUUCCGGAGGAUGAAACAAUUUGGAGAAGUACAGAUCGGAAGAGCACACGU"
  pKd: 8.28
- binder: "target 1 insC 3' of 20,insA 3' of 7 (mixed) RNA 1: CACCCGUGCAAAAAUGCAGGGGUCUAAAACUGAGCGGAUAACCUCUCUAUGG RNA 2: GGGAAUGGAUCCACAUCUACGAAUUCGUACCACUAGAGAGGUUAUCACGCUCACCGAGAUCGGAAGAGCACACGU"
  pKd: 8.13

Then there is this binder:
The binder listed as target 2 MT 5'PFS UGU 3'PFS CGA (mixed) RNA 1: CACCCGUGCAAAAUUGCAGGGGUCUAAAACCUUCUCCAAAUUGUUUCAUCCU RNA 2: GGGAAUGGAUCCACAUCUACGAAUUCUGUAGGAUGAAACAAUUUGGAGAAGCGAAGAUCGGAAGAGCACACGU has a reported pKd of 7.99

The measurements presented in this section are drawn from paper PMC10786891.
